- Protocol details: CCTE_Mundy_HCI_Cortical_Synap_Neur_Matur_SynapseCount: CCTE's Synaptogenesis and Neurite Maturation Assay in rat cortical cells for Synapse Count, Mundy Lab (AID 2284218)
The source made the active and inactive calls. Rule for the calls: active = hit-call score of the fitted dose curve at least 0.9, where 1 is the maximum; inactive = score below 0.9.

# Compound, AC50
measured = [
    ("[CH3][Sn]([CH3])[CH3]", "1.79 µM (active)"),
    ("[CH3][Hg][Cl]", "0.582 µM (active)"),
    ("CNC(=N[N+](=O)[O-])NCC1CCOC1 (configuration not stated)", "0.00885 µM (active)"),
    ("COP(=O)(OC)SCN1C(=O)c2ccccc2C1=O", "inactive"),
    ("CC(=O)[O-].CC(=O)[O-].O.O.O.[Pb+2]", "inactive"),
    ("CC1(C)[C@H](C=C(Cl)Cl)[C@H]1C(=O)OCc1c(F)c(F)cc(F)c1F", "9.74 µM (active)"),
    ("C[C@H](N)Cc1ccccc1", "inactive"),
]

* * *

- Protocol details: IUF_NPC4_neurite_length_120hr: Leibniz Research Institute for Environmental Medicine (IUF) 120-hour Neuronal Morphology Assay for Neurite Length (NPC4) (AID 2284302)
Activity calls are given as the source filed them. How the source made its calls: active means hit-call score of the fitted dose curve at least 0.9, where 1 is the maximum; inactive means score below 0.9.
Possible outcomes: yes = active, no = inactive

# Molecule, Group label
measured = [
    ("CC1(C)[C@H](C(=O)O[C@H](C#N)c2cccc(Oc3ccccc3)c2)[C@@H]1C=C(Br)Br", "no"),
    ("Cc1ccc(OP(=O)(Oc2ccc(C)cc2)Oc2ccc(C)cc2)cc1 (tested in a mixture with another compound)", "no"),
    ("O=C1N[C@@H]2C(=C[C@H](O)[C@@H](O)[C@H]2O)c2cc3c(c(O)c21)OCO3", "yes"),
    ("CC(=O)[O-].CC(=O)[O-].O.O.O.[Pb+2]", "no"),
    ("CCOP(=O)(OCC)OC(Cl)C(Cl)(Cl)Cl (stereo not given)", "no"),
]

* * *

- Target or system: Cellular tumor antigen p53 (Homo sapiens)
- Protocol details: TOX21_p53_BLA_p5_ratio: Tox21 HCT-116 p53 Agonism Beta-lactamase Assay, Ratio, Phase 5 (AID 2283599)
Inconclusive results are not listed. Activity calls are given as the source filed them. Rule for the calls: active = hit-call score of the fitted dose curve at least 0.9, where 1 is the maximum; inconclusive = response in the unintended direction; inactive = score below 0.9.
Labels: true (1) = active, false (0) = inactive

# Molecule, Group label
data = [
    ("NNC(=O)c1ccccc1", "false (0)"),
    ("CC(C)CON=O", "false (0)"),
    ("Cc1ccc(N(SC(F)(Cl)Cl)S(=O)(=O)N(C)C)cc1", "false (0)"),
    ("Cc1ccccc1-n1c(C)nc2ccccc2c1=O", "false (0)"),
    ("Cc1coc2c1CCC(C)C2 (stereo not given)", "false (0)"),
    ("SCc1ccccc1", "false (0)"),
    ("CC1CCC(C(C)C)C(OC(=O)c2ccccc2N)C1 (stereo not given)", "true (1)"),
    ("CCOC(=O)N(C)N=O", "false (0)"),
    ("CC(C)(C)C(=O)CCl", "false (0)"),
    ("CCCCCc1cc(O)cc(O)c1", "false (0)"),
]

* * *

- Protocol details: ATG_GRE_CIS: Attagene CIS-FACTORIAL HepG2 Assay for human Glucocorticoid Response Elements (GRE) (AID 2282947)
- Study conditions: HepG2 GRE cis-reporter, Attagene multiplex mRNA; actives raise or lower the signal
Active and inactive are the calls of the source. How the source made its calls: active means hit-call score of the fitted dose curve at least 0.9, where 1 is the maximum; inactive means score below 0.9.

# Compound, outcome
data = [
    ("Oc1ccc(C2(c3ccc(O)cc3)c3ccccc3-c3ccccc32)cc1", "inactive"),
    ("c1ccc(P(c2ccccc2)c2ccccc2)cc1", "inactive"),
    ("Cc1cc(C)c(C2=C(OC(=O)CC(C)(C)C)C3(CCCC3)OC2=O)c(C)c1", "inactive"),
    ("N#Cc1cccc(C#N)c1", "inactive"),
    ("O=P1(NCCCl)OCCCN1CCCl (stereo not given)", "inactive"),
    ("C=CC(=O)OCCO", "inactive"),
    ("CCCCCCC1CCOC1=O (stereo not given)", "inactive"),
    ("Cl/C=C\\CCl", "inactive"),
    ("CCCCOP(=O)(O)OCCCC", "inactive"),
    ("CN(C)CCC#N", "inactive"),
    ("COc1cc(OC)c(OC)cc1C=O", "inactive"),
    ("Nc1ccccc1", "inactive"),
    ("O=C(O)c1cc[c]([Hg][Cl])cc1", "inactive"),
    ("CCOC(=O)COc1ccc(Cl)cc1Cl", "inactive"),
    ("CC(C)c1ccc(O)cc1", "inactive"),
]

* * *

- System: rat Monoamine Oxidase, MAO-A, Peripheral (MAOAP), gene 29253
- Protocol details: NVS_ENZ_rMAOAP: NovaScreen (NVS) Enzymatic Assay for rat Monoamine Oxidase, MAO-A, Peripheral (MAOAP) (AID 2283237)
Results filed as inconclusive are left out. The source made the active and inactive calls. How the source made its calls: active means hit-call score of the fitted dose curve at least 0.9, where 1 is the maximum; inconclusive means response in the unintended direction; inactive means score below 0.9.
Outcome codes: active, inactive

# Compound, Group label
rows = [
    ("NCC1(Cc2noc(=O)[nH]2)CCCCC1", "inactive"),
    ("COc1ccc2cc(S(=O)(=O)N[C@H](CC(=O)N[C@H](Cc3ccc(CN4[C@H](C)CCC[C@@H]4C)cc3)C(=O)N(C)C(C)C)c3ccc4c(c3)OCO4)ccc2c1", "active"),
    ("O=Cc1ccccc1C=O", "inactive"),
    ("CC[C@H](C)C(=O)O[C@H]1C[C@H](O)C=C2C=C[C@H](C)[C@H](CC[C@@H](O)C[C@@H](O)CC(=O)O)[C@H]21", "inactive"),
    ("C[C@]12CC[C@@H]3c4ccc(O)cc4CC[C@H]3[C@@H]1CCC2=O", "inactive"),
    ("Clc1cc(Cl)c2c(c1)N=C1CCCCCN1C2", "active"),
    ("CCCCC(CC)C(=O)OCCOCCOCCOC(=O)C(CC)CCCC (stereo not given)", "inactive"),
    ("Fc1ccccc1[C@@H](F)COC1CCC(Nc2ncnc3[nH]ncc23)CC1 (stereo not given in full)", "inactive"),
    ("Nc1cccc2c(N)cccc12", "active"),
    ("N#CSCSc1nc2ccccc2s1", "active"),
    ("NCc1cccc(C2CCN(C(=O)c3ccc(C#Cc4ccccc4F)o3)CC2)c1", "active"),
    ("CC(C)(c1ccc(O)cc1)c1ccc(O)cc1", "inactive"),
    ("COCCOCCOC", "active"),
    ("O=c1c(O)c(-c2ccc(O)c(O)c2)oc2cc(O)cc(O)c12", "active"),
    ("Nc1nc(N)c2nc(CNc3ccc(C(=O)N[C@@H](CCC(=O)O)C(=O)O)cc3)cnc2n1", "active"),
    ("CCCCCCc1ccc(O)cc1O", "active"),
    ("CCCOc1sc(C(=O)N2CCC(c3cc(CN)ccc3F)CC2)c(C)c1Br", "active"),
    ("c1ccc2[nH]c(-c3cscn3)nc2c1", "inactive"),
    ("CN(C)c1ccc(N=NS(=O)(=O)O)cc1", "active"),
    ("O=c1ccc2ccccc2o1", "active"),
    ("Oc1ccc2ccccc2c1", "active"),
    ("Nc1cccc(N)c1", "inactive"),
    ("CC(C)C(=O)Nc1ccc([N+](=O)[O-])c(C(F)(F)F)c1", "active"),
    ("CCN(CC)CCNc1ccc(CNC=O)c2sc3ccc(OC)cc3c(=O)c12", "active"),
    ("O=NO", "active"),
]

* * *

- Read-out: Decorin, DCN (gene 1634)
- Protocol details: BSK_MyoF_Decorin: BioMAP Diversity Plus: MyoF Assay for Decorin Biomarker Activity (AID 2284265)
- Study conditions: primary human lung fibroblasts
Calls of active or inactive are those of the source. The calls were made as follows: active = hit-call score of the fitted dose curve at least 0.9, where 1 is the maximum; inactive = score below 0.9.
Outcome codes: label 1 for active, label 0 for inactive

# Molecule, Group label
data = [
    ("c1ccc(Nc2ccc3ccccc3c2)cc1", "label 0"),
    ("O=P1(NCCCl)OCCCN1CCCl (stereo not given)", "label 0"),
    ("CCCOC(=O)c1ccccc1C(=O)OCCC", "label 0"),
    ("C=CCN(CC=C)C(=O)C(Cl)Cl", "label 0"),
    ("O=S(=O)(c1ccccc1)c1ccccc1", "label 0"),
    ("O=c1[nH]c(Cl)c(Cl)cc1Cl", "label 0"),
    ("O=[N+]([O-])C=Cc1ccccc1", "label 0"),
    ("Clc1ccc(-c2ccccc2)cc1", "label 0"),
    ("O=C1C=CC(=O)C=C1", "label 0"),
    ("O=C1C(Cl)=C(Cl)C(=O)C(Cl)=C1Cl", "label 0"),
    ("CCC(C)c1cc([N+](=O)[O-])cc([N+](=O)[O-])c1OC(=O)C=C(C)C (stereo not given)", "label 1"),
    ("CC(C)(c1cc(Cl)c(O)c(Cl)c1)c1cc(Cl)c(O)c(Cl)c1", "label 0"),
    ("O=c1c2ccccc2c(=O)c2c1cc(Cl)c1[nH]c3c([nH]c12)c(Cl)cc1c(=O)c2ccccc2c(=O)c13", "label 0"),
    ("CCc1cc(C)cc(CC)c1-c1c(OC(=O)C(C)(C)C)n2n(c1=O)CCOCC2", "label 0"),
    ("CC(C)CCCCCCCOP(=O)(Oc1ccccc1)Oc1ccccc1", "label 1"),
]
